- assay.text: amyloid nucleation score (Sup35N fusion, yeast selection) (log enrichment); library NNK2; higher = more nucleation; inactive = no reads after selection;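 further: zero at mode of non-aggregating sequences after 7 days selection at 30°C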
quantity: amyloid nucleation score
Just the number, please, no unit after it.

Here are 10 substances together with their reported answers.
Which amyloid nucleation score is reported for this substance? TSPSYVTSCYRFVKEIDHWK
-1.29

Now the substance IDIEMIYERKPVGRIFSDT
-1.25

Now the substance PLFTINRVVMPNINVETFAG
-0.522

Now the substance VFRYAGRCRNGIVGLYGATM
4.68

Now the substance SEMDPNKAMRIGW
0.174

Now the substance VEFLWGFWWYKPQRKSVGST
-1.54

Now the substance YMRGITHSAGCSSLAINVEH
-1.23

Now the substance RTRLYIDQRRKAFYPGLGFS
0.347

Now the substance LVYRGLESQPAMRMWHTSST
-0.207

Now the substance WSCNRNCSIFDR
-0.373

Further cases:
Which amyloid nucleation score is reported for this substance? CFMFWLCITNGIRPQCPLAS
0.016

Now the substance LRNMPRVQQVCPYFINVRGK
2.25

Now the substance YHNWSA
0.025

Now the substance VFSSFWVYKLYEFEASSNVR
-0.371

Now the substance KRKKQKFAMLYVSGNLLRRD
0.234

Now the substance SILLRKRQELSNFTMW
-0.67

Now the substance WMGIWYGCVWVFGMVGANNR
2.2

Now the substance NQDPRSRLLSNELYGCHFVL
-0.214

Now the substance SHEFSRMLEEFWDHNNVRSH
-1.1

Now the substance LISVDFRYYGYVVLGWISTL
0.807

Now the substance IYYNGFVQCGLLIEGLITSY
2.39

Now the substance VPTLCLVLDRLLDSNR
-1.39

Now the substance SLSRCALL
-0.789

Now the substance TVMLFIVHLPCDRTFYL
0.682

Now the substance RFRGGSKSGLYFIVCISDVW
-0.758

Now the substance SMRCLIMCATDCRNDMGRLW
5.36

This collection of values is drawn from the supplement of paper PMC12042874.
